Reference for the values: PubChem BioAssay (NCATS)

# parasite growth, % of DMSO control annotations
assay.details: qHTS profiling of the MIPE4 collection as inhibitors of Plasmodium falciparum (3D7) proliferation (AID 743344);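 also: scaled between DMSO vehicle wells and 0.29 µM artemisinin as full inhibition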
condition.notes: P. falciparum 3D7 in erythrocytes, SYBR Green DNA fluorescence, 72 h; at 28.5 µM unless noted
Experimental: Plasmodium falciparum is a virulent malarial parasite that kills 1-2 million people worldwide each year. […] Because mature erythrocytes lack DNA, only Plasmodium-derived DNA is detected. The SYBR Green viability assay was adapted from a method described previously (Plouffe et al., 2008). […] The following morning, fluorescence intensity at 485(14) nm excitation and 535(25) nm emission wavelengths was measured on an EnVision (Perkin Elmer) plate reader. […]
Value expressed in %; do not type the unit.

> print(dat)
                                   compound                            endpoint   val
1  CC1(C)CNc2cc(NC(=O)c3cccnc3NCc3ccncc3)ccc21  parasite growth, % of DMSO control  53.8
2  N#CC[C@H](C1CCCC1)n1cc(-c2ncnc3[nH]ccc23)cn1  parasite growth, % of DMSO control  21.5
3  COc1ccc(COc2cc3oc(=O)c4cc(C(C)O)ccc4c3cc2OC)cc1 (stereo unspecified)  parasite growth, % of DMSO control  39.5
4                              NNCCc1ccccc1  parasite growth, % of DMSO control  88.8
5  COc1cc2nccc(Oc3ccc(NC(=O)NC4CC4)c(Cl)c3)c2cc1C(N)=O  parasite growth, % of DMSO control  17.7
6  CC(C[N+](C)(C)C)OC(N)=O (stereo unspecified)  parasite growth, % of DMSO control   102
7  COc1c(Cl)cc2c([nH]c3cnccc32)c1NC(=O)c1cccnc1C  parasite growth, % of DMSO control  19.9
8  CCC(C)N(C)C(=O)c1cc2ccccc2c(-c2ccccc2Cl)n1 (stereo unspecified)  parasite growth, % of DMSO control    39

Lookup result for Nc1nccc(-c2ccc3noc(-c4ccc(Cl)cc4)c3c2)n1 ; measured parasite growth, % of DMSO control: 85.1

Lookup result for Cc1[nH]c(=O)c(C#N)cc1-c1ccncc1 ; measured parasite growth, % of DMSO control: 15.2

Lookup result for NCCCC(N)(C(=O)O)C(F)F (stereo unspecified) ; measured parasite growth, % of DMSO control: 98

Lookup result for Oc1ccc(C2CNCCc3c2cc(O)c(O)c3Cl)cc1 (stereo unspecified) ; measured parasite growth, % of DMSO control: 6.63

* * *

assay.details: Quantitative High-Throughput drug screen in 47 multiple myeloma cell lines against the NCATS MIPE library collection: Karpas25_ECACC cell viability assay (AID 1918968; also: nearly all actives have a fitted effect of over 35% in size)
condition.notes: Karpas25 myeloma viability, CellTiter-Glo ATP, 48 h; series mostly up to 45.8 µM
Records with an inconclusive call do not appear. The source made the active and inactive calls. Calls follow the shape of the dose curve; as a rule, active = well fitted cell-killing curve with a large enough effect; inconclusive = small, poorly fitted or top-dose-only effect, or effect the other way; inactive = no such curve, though single readings can be large or run the other way.
The reply should name one outcome from active, inactive

Worked set:
> print(dat)
                                   compound  class.label
1  Cc1cccc(-c2[nH]c(C(C)(C)C)nc2-c2ccc3nccnc3c2)n1       active
2  CCC(C)n1ncn(-c2ccc(N3CCN(c4ccc(OC[C@H]5CO[C@](Cn6cncn6)(c6ccc(Cl)cc6Cl)O5)cc4)CC3)cc2)c1=O (stereo not given in full)     inactive
3  CNCc1ccc(-c2[nH]c3cc(F)cc4c3c2CCNC4=O)cc1     inactive
4  Cc1n[nH]c(C)c1Cc1sc2c(c1C(=O)N1C[C@H](O)CO1)c(=O)n(C)c(=O)n2CC(C)C     inactive

Please look at the following compound next.
Assay result, entry Nc1nccc(-c2ccc3noc(-c4ccc(Cl)cc4)c3c2)n1 — outcome?
inactive
